Reported melting point is given for each of the following molecules.

{"columns": ["molecule", "melting point"],
 "data": [
  ["O=C(O)c1ccccc1N1CCOCC1", "58 to 60 °C"],
  ["CC(Cl)C(=O)Nc1ccc(S(=O)(=O)N2CCCCC2)cc1 (stereo not given)", "130 to 135 °C"],
  ["O=C(O)c1cnc2c(Br)cccc2c1O", "276 to 278 °C"],
  ["CN(C)C(=O)c1ccc(N)cc1", "151 to 153 °C"],
  ["CN1CCN(S(=O)(=O)c2cccc(Br)c2)CC1", "103 to 105 °C"]
]}

---

Each entry below carries its reported melting point.

{"columns": ["molecule", "melting point"],
 "data": [
  ["O=C(O)CSc1cnc2ccccc2n1", "178 to 180 °C"],
  ["CC1CCCC(=O)N1 (stereo not drawn)", "87 to 89 °C"],
  ["Cn1ccnc1SCc1ccccc1[N+](=O)[O-]", "86 to 88 °C"]
]}
